# Tested on: MDA-MB-231 breast
# protocol: NCI tumour cell line growth inhibition, 48 h
measured property: TGI

INSERT INTO measurements (compound, measured_property, measurement) VALUES
  ('CSc1nc(N)c2c(-c3ccccc3)c3c(nc2n1)CCCC3', 'TGI', '> 100 µM'),
  ('CC(=O)OC1=CC2(OC(C)=O)CC(C)(C)C1C1C(=O)C=CC(=O)C12 (stereo unspecified)', 'TGI', '> 100 µM'),
  ('COc1cc2c(c(OC)c1OC)-c1ccc(N=NC(N)=S)c(=O)cc1[C@@H](NC(C)=O)CC2', 'TGI', '> 27.7 µM'),
  ('[N-]=[N+]=CC(=O)OCCCCl', 'TGI', '> 100 µM'),
  ('C#CC(O)/C=C/CCCCCCC#CC/C=C\CC#CCCCCCCCCC(O)C#C (stereo unspecified)', 'TGI', '11.8 µM'),
  ('O=C(Cn1c(C(=O)c2ccccc2)nc2ccccc21)c1ccccc1', 'TGI', '> 100 µM'),
  ('C=C1C(=O)O[C@H]2C[C@@H]1[C@@H](O)[C@H](O)[C@@H](C)CCCC(C)=CCC[C@@]2(C)O', 'TGI', '84.4 µM'),
  ('CCSC[C@@H]1C[C@](O)(c2ccc(F)cc2)[C@@H](c2ccc(F)cc2)O1', 'TGI', '30.1 µM'),
  ('COC1C(N(C)C)=C(c2ccccc2)C(=O)N2CCc3ccccc3C12 (stereo unspecified)', 'TGI', '> 100 µM'),
  ('COc1ccccc1C1(c2c(OC)c(=O)c2=O)SCCCS1', 'TGI', '> 100 µM'),
  ('Cc1nc2sc(C(=O)c3ccc(Cl)cc3)c(N)c2c(-c2ccccc2Cl)c1C(=O)Nc1ccccc1', 'TGI', '34.6 µM'),
  ('CCOc1ccc2c(c1)c(CC(=O)O)cn2C', 'TGI', '> 100 µM'),
  ('Cc1nc2ccccc2nc1N=Nc1ccccc1', 'TGI', '69.1 µM'),
  ('COC(=O)c1cc(OC)c(OC)c(OC)c1-c1cc2c(cc1C=O)OCO2', 'TGI', '> 10 µM'),
  ('CC1SC2(CCCCC2)N(NC(=O)c2[nH]c3ccc(Br)cc3c2-c2ccccc2)C1=O (stereo unspecified)', 'TGI', '79.6 µM'),
  ('CC(=O)OCC1OC(n2c(Br)nc3c2c(=O)n(C)c(=O)n3C)C(OC(C)=O)C1OC(C)=O (stereo unspecified)', 'TGI', '> 100 µM'),
  ('O=C(Nc1ccc(S(=O)(=O)/N=c2\ncccn2C(=O)C(C(F)(F)F)C(F)(F)F)cc1)C(C(F)(F)F)C(F)(F)F', 'TGI', '> 100 µM'),
  ('C=C(Cl)C(Cl)(CCl)CCC(Br)C(C)(C)Br (stereo unspecified)', 'TGI', '> 10 µM'),
  ('Cc1cc(Cl)ccc1C(=O)c1ccc2ccccc2c1C(=O)O', 'TGI', '> 100 µM'),
  ('CCC(C)C1=C(O)[N+]2([O-])Oc3ccc(-c4c(O)c(O)c(-c5ccc(OC(C)=O)cc5)c(OC(C)=O)c4OC(C)=O)cc3OC2(C(C)CC)C(=O)N1O (stereo unspecified)', 'TGI', '> 50 µM'),
  ('COc1cc(OC)c2c(c1)OC(c1cccnc1)C(c1ccccc1)C2=O (stereo unspecified)', 'TGI', '> 100 µM');
